biological target: bacteriophage T4 DNA polymerase (Enterobacteria phage T4); construct: made in house; assay: Counter-screen against bacteriophage T4 DNA polymerase; assay type: biochemical; conditions: DRC-2; 10'; concentration 40
Attribute Measured: % inhibition T4 10' (%)
Report only the number, with the unit % understood.

- CC(=O)c1cc2c(N)c(/C(N)=N/C#N)sc2nc1C: -11
- COc1cccc(Oc2c(C(F)(F)F)oc3cc(OC(=O)N(C)C)ccc3c2=O)c1: 17

Look at this compound and give its reported % inhibition T4 10'. CCOC(=O)C1=C2c3cc(OC)c(OC)cc3CC(C)(C)N2C(=O)C1=O
38

---

Biological target: bacteriophage T4 DNA polymerase (Enterobacteria phage T4, UniProt P04415)
Construct: made in house
Sequence (P04415 1-898): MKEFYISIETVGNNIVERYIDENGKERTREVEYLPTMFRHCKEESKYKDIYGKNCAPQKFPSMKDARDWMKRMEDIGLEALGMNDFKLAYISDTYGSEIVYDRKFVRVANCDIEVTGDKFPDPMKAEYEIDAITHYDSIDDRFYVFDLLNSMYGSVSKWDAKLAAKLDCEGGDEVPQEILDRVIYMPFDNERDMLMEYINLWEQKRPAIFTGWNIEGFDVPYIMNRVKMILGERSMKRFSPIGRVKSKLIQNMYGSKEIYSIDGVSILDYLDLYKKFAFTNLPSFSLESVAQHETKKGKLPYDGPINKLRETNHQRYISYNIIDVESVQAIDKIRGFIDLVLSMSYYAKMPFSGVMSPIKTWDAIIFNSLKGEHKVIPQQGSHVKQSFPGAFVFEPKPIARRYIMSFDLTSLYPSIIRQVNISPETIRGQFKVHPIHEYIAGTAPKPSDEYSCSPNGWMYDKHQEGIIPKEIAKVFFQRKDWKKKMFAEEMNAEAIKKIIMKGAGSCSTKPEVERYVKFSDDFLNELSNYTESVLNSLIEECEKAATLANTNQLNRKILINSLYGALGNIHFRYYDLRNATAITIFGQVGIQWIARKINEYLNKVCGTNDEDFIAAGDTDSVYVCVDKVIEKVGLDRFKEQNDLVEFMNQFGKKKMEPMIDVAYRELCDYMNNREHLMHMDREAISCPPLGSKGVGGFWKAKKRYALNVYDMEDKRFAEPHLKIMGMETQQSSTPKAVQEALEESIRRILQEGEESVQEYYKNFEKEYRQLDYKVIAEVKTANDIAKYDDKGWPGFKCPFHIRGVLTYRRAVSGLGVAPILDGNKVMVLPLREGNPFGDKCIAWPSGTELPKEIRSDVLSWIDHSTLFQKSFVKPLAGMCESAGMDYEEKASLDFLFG
Assay: Counter-screen against bacteriophage T4 DNA polymerase
Assay type: biochemical
Details: DRC-2; 40'; concentration 5
% inhibition T4 40' below 10% gives Criterion not met; % inhibition T4 40' at or above it gives Criterion met.

Use the examples below as a reference point.
* CCOC(=O)C1=C2c3cc(OC)c(OC)cc3CC(C)(C)N2C(=O)C1=O | Criterion not met
* Cc1ccccc1C(=O)N1CCc2c(nc3cc(-c4ccccc4)[nH]n3c2=O)C1 | Criterion met
* Cc1ccc(NC(=O)Cn2ccc3c(=O)[nH]ccc32)cc1F [Molecule 48, O=C(Cn1ccc2c1cc[nH]c2=O)Nc1ccc(c(c1)F)C] | Criterion not met
* CC1(C)CC(=O)C2=C(C1)OC1=C(C(=O)CC(C)(C)C1)C2c1ccc(O)cc1 | Criterion met
* O=C1N=C(Nc2cccc(Cl)c2Cl)S/C1=C\c1ccco1 [Molecule 3, O=C1N=C(S/C/1=C\c1ccco1)Nc1cccc(c1Cl)Cl] | Criterion met
* COc1ccc(-c2n[nH]cc2Oc2ccc(Cl)cc2)c(O)c1 | Criterion not met

For this molecule, is measured % inhibition T4 40' 10% or higher? Cc1ccc(C)n1-c1ccc(C(=O)NNC(=O)c2ccc3nccnc3c2)cc1
Criterion met

Ok, now Cc1nc(/N=N/c2ccc(C(=O)[O-])cc2)c(COP(=O)([O-])[O-])c(C=O)c1O.[Na+].[Na+].[Na+]
Criterion not met

Repeat with O=C(NC(C(Cl)Cl)S(=O)(=O)c1ccccc1)c1ccccc1 (stereo not drawn)
Criterion not met
